Reported IC50 values are given for each entry in this list.
target: SAE (Homo sapiens); construct: endogenous in cells; host or cells: HCT116; assay: SUMO IF: in vitro inhibitory activity assay against SAE in HCT116 cells (SUMO-2/3 immunofluorescence); assay type: cell-based; details: numeric values, 6 h at 37° C.
assay endpoint: IC50 (µM)

[
  {
    "structure smiles string": "NS(=O)(=O)OC[C@H]1[C@H](F)[C@@H](Nc2ncncc2C(=O)c2cc3c(s2)CN(CC(F)(F)F)C[C@]32NCCc3ccc(Cl)cc32)C[C@@H]1O",
    "test system": "SAE (Homo sapiens)",
    "unit text": "µM",
    "measurement qualifier": "=",
    "data value": 0.0259
  },
  {
    "structure smiles string": "C=CCN1Cc2sc(C(=O)c3cncnc3N[C@H]3C[C@H](O)[C@@H](COS(N)(=O)=O)[C@@H]3F)cc2[C@]2(C1)NCCc1ccc(Cl)cc12",
    "test system": "SAE (Homo sapiens)",
    "unit text": "µM",
    "measurement qualifier": "=",
    "data value": 0.0251
  },
  {
    "structure smiles string": "NS(=O)(=O)OC[C@H]1[C@H](F)[C@@H](Nc2ncncc2C(=O)c2cc3c(s2)C=C[C@@]32NCCc3ccc(Cl)cc32)C[C@@H]1O",
    "test system": "SAE (Homo sapiens)",
    "unit text": "µM",
    "measurement qualifier": ">",
    "data value": 1
  }
]

###

Reported Vd values are given for each entry in this list.
test: In vivo pharmacokinetic experiment in CD-1 female mice, intravenous; conditions: mouse, 2 mg/kg, CD-1 mice, 2 mpk, plasma, read-out: Vdss

[
  {
    "structure smiles string": "NS(=O)(=O)OC[C@H]1[C@H](F)[C@@H](Nc2ncncc2C(=O)c2cc3c(s2)C=C[C@]32NCCc3ccc(Cl)cc32)C[C@@H]1O",
    "unit text": "L/kg",
    "Vd": 8.65
  },
  {
    "structure smiles string": "NS(=O)(=O)OC[C@H]1[C@H](F)[C@@H](Nc2ncncc2C(=O)c2cc3c(s2)CC[C@]32NCCc3ccc(Cl)cc32)C[C@@H]1O",
    "unit text": "L/kg",
    "Vd": 5.45
  },
  {
    "structure smiles string": "NS(=O)(=O)OC[C@H]1[C@H](F)[C@@H](Nc2ncncc2C(=O)c2cc3c(s2)CCC[C@]32NCCc3ccc(Cl)cc32)C[C@@H]1O",
    "unit text": "L/kg",
    "Vd": 12.7
  },
  {
    "structure smiles string": "NS(=O)(=O)OC[C@H]1[C@H](F)[C@@H](Nc2ncncc2C(=O)c2cc3c(s2)CCC[C@]32NCCc3ccc(F)cc32)C[C@@H]1O",
    "unit text": "L/kg",
    "Vd": 9.18
  }
]

###

biological target: SAE (Homo sapiens, UniProt Q9UBT2); construct: endogenous in cells; host or cells: HCT116; assay: SUMO IF: in vitro inhibitory activity assay against SAE in HCT116 cells (SUMO-2/3 immunofluorescence); format: cell-based; conditions: class symbols, 6 h at 37° C.
Sequence (Q9UBT2 whole entry): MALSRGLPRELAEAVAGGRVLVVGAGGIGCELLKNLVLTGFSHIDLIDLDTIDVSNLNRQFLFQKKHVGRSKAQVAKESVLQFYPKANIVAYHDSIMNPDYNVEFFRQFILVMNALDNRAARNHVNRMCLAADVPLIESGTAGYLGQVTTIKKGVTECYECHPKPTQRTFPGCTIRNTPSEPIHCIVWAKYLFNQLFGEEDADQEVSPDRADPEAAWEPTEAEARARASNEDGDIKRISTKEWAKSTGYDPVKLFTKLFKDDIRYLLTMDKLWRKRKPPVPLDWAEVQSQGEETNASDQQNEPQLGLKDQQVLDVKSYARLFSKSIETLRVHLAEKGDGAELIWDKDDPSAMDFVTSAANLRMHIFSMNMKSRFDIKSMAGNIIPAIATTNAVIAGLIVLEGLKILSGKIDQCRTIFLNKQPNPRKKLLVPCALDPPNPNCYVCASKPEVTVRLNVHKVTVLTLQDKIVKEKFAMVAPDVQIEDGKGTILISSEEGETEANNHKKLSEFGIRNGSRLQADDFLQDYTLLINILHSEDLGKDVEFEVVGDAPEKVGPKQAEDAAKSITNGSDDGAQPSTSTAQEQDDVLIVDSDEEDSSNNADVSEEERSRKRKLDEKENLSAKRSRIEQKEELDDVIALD
Sequence (Q9UBE0 whole entry, further chain): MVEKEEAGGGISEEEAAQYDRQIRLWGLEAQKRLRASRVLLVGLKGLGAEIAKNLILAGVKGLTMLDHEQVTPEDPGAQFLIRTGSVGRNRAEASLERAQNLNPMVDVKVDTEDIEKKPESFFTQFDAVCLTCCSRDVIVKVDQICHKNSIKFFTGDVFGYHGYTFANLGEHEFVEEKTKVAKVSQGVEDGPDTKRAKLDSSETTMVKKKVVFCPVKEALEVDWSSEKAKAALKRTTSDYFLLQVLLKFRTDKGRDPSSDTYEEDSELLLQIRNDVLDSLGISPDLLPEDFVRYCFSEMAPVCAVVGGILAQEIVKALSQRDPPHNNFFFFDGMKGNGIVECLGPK
pIC50: −log10 of the molar value.
Reported pIC50 values are given for each entry in this list.
assay endpoint: pIC50

[
  {
    "compound": "NS(=O)(=O)OC[C@H]1[C@H](F)[C@@H](Nc2ncncc2C(=O)c2cc3c(s2)COC[C@]32NCCc3ccc(Cl)c(Cl)c32)C[C@@H]1O [Compound 560]",
    "data value": "6.70 to 7.30"
  },
  {
    "compound": "N#Cc1ccc2c(c1)C1(CCCc3sc(C(=O)c4cncnc4N[C@H]4C[C@H](O)[C@@H](COS(N)(=O)=O)[C@@H]4F)cc31)NCC2 (stereo partly drawn) [Compound 94]",
    "data value": "6.70 to 7.30"
  },
  {
    "compound": "NS(=O)(=O)OC[C@H]1[C@H](F)[C@@H](Nc2ncncc2C(=O)c2cc3c(s2)CCCC32OCCc3ccccc32)C[C@@H]1O (stereo partly drawn) [Compound 708]",
    "data value": "< 6.70"
  },
  {
    "compound": "NS(=O)(=O)OC[C@H]1[C@H](F)[C@@H](Nc2ncncc2C(=O)c2cc3c(s2)C=C[C@@]32OCCc3ccccc32)C[C@@H]1O [Compound 754]",
    "data value": "< 6.70"
  },
  {
    "compound": "NS(=O)(=O)OC[C@H]1[C@H](F)[C@@H](Nc2ncncc2C(=O)c2cc3c(s2)CCC[C@@]32OCCc3ccccc32)C[C@@H]1O [Compound 709]",
    "data value": "< 6.70"
  },
  {
    "compound": "CC1CN[C@]2(C=Cc3sc(C(=O)c4cncnc4N[C@H]4C[C@H](O)[C@@H](COS(N)(=O)=O)[C@@H]4F)cc32)c2cc(Cl)ccc21 (stereo partly drawn) [Compound 1055]",
    "data value": "≥ 7.30"
  }
]
